A collection of compounds and their measured RP-LC retention time
# assay.explanation: gradient 5% acetonitrile 3 min, to 50% in 2 min, to 85% in 15 min, held 3 min, 100 µL/min
# measurement.setup: column: Zorbax Extend-C18 2.1 x 50 mm; eluents: water / acetonitrile, 0.1% formic acid
Return type: number; implicit unit s.

Below, 3 compounds whose answers are already recorded.
| smiles.input | RP-LC retention time (s) |
| --- | --- |
| CC(=O)Nc1ccc(-c2noc(C3CCN(C(=O)CCc4c[nH]c5ccccc45)CC3)n2)cc1 | 786 |
| CCc1cc(=O)n(CC(=O)NCc2ccc(F)cc2F)c(N)n1 | 812 |
| CCCNC(=O)C1CCN(c2cc(SCC(=O)Nc3cccc(CC)c3)ncn2)CC1 | 810 |

Now for the compound whose RP-LC retention time we want.
## Task RP-LC retention time lookup needed for `CCOc1ccc2c(n1)CCN(C(=O)NC1CCCCC1)C2` , thanks.
## Result 822

====

Some molecules, each annotated with its measured RP-LC retention time.
# assay.explanation: gradient 5% acetonitrile 3 min, to 50% in 2 min, to 85% in 15 min, held 3 min, 100 µL/min
# measurement.setup: column: Zorbax Extend-C18 2.1 x 50 mm; eluents: water / acetonitrile, 0.1% formic acid
Just the number in s, nothing appended.

Worked cases, answers included:
| smiles.input | RP-LC retention time [s] |
| --- | --- |
| Cc1nnc([C@@H]2CC(F)(F)CN2C(=O)COc2ccc(Cl)cc2)o1 | 779 |
| Cc1ccc(CSc2nccc3c2ccn3CC(=O)NCc2cccnc2)cc1 | 823 |

## Task Sample `CS(=O)(=O)Nc1ccc(-c2noc(CNC(=O)Cc3ccc(Cl)cc3)n2)cc1` — what was its RP-LC retention time?
## Result 788

## Task Please look up its RP-LC retention time: `COc1ccc(Br)cc1CNC(=O)Cn1cnc2onc(C)c2c1=O`
## Result 815

## Task Which RP-LC retention time reading was recorded for the molecule `COc1ccc2c(Oc3ccc(NC(=O)c4c(C)n(CC(C)(C)O)n(-c5ccccc5)c4=O)nc3)ccnc2c1` ?
## Result 707
